- Target Desc: Cytochrome P450 2C19 (Homo sapiens)
- Protocol Text: blockers of cytochrome P450 2C19 activity – biochemical, luminescence, ADME assay, primary screen (AID 778);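 note: plate controls were negative control wells for no effect and 2.5 mM tranylcypromine positive control for full effect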
- Condition Details: CYP2C19 Supersomes, luciferin-H EGE luminescence, 30 min; at 5 µM; stronger effect = higher value
In all, about 96,000 compounds went through this assay and about 20,000 (21%) were called active. The list is a sample of the results.
This listing pairs compounds with measured inhibition.

>  <Compound>
OCc1n[nH]c(CO)n1

>  <inhibition, %>
1.2

$$$$
>  <Compound>
CN(C)CCCNc1c2c(c(C#N)c3nc4ccccc4n13)CCC2

>  <inhibition, %>
0

$$$$
>  <Compound>
COc1ccccc1C(=O)N1CCN=C1SCc1cccnc1

>  <inhibition, %>
88.2

$$$$
>  <Compound>
COCCN(C(=O)CCC(=O)Nc1ccccn1)C(C(=O)NCCC(C)C)c1ccc(OC)cc1 (stereo unspecified)

>  <inhibition, %>
42.4

$$$$
>  <Compound>
COc1ccccc1C(=O)N1CCNC(=O)C1CC(=O)Nc1ccc(Cl)cc1 (stereo unspecified)

>  <inhibition, %>
12.1

$$$$
>  <Compound>
CC(C)C(=O)Nc1cccc(NC(=S)NC(=O)C(c2ccccc2)c2ccccc2)c1

>  <inhibition, %>
18.9

$$$$

====

- Target Desc: Cytochrome P450 2C19 (Homo sapiens) (UniProt P33261)
- Sequence (P33261 whole entry, looked up): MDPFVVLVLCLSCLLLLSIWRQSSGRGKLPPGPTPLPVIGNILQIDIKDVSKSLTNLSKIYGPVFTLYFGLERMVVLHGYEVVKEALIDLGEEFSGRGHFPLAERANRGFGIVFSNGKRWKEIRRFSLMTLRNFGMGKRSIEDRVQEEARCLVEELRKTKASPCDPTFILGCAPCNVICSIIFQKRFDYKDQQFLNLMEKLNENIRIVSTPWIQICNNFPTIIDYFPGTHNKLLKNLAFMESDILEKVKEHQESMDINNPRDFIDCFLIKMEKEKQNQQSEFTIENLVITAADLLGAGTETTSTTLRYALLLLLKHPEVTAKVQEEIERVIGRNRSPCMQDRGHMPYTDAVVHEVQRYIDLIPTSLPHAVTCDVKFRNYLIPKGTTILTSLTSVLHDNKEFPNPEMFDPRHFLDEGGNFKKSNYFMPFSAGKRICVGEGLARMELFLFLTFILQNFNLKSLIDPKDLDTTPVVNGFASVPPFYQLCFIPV
- Protocol Text: blockers of cytochrome P450 2C19 activity – biochemical, luminescence, ADME assay, primary screen (AID 778);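 note: plate controls were negative control wells for no effect and 2.5 mM tranylcypromine positive control for full effect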
- Condition Details: CYP2C19 Supersomes, luciferin-H EGE luminescence, 30 min; at 5 µM; stronger effect = higher value
Among all 96,000 compounds or so, about 20,000 (21%) were called active. A selection follows.
If the reported inhibition equals or exceeds 20%, assign t. If not, assign f.

>  <Compound>
Cc1ccc(-c2c3c(=O)n(C)c(=O)n(C)c3cn2-n2cnnc2)cc1

>  <Class Label>
f

$$$$
>  <Compound>
CCOc1cc(NC(=O)c2ccco2)c(OCC)cc1NC(=O)COc1ccccc1

>  <Class Label>
t

$$$$
>  <Compound>
O=C1c2ccccc2-c2ncnc3c(N4CCOCC4)cc(N4CCOCC4)c1c23

>  <Class Label>
t

$$$$
>  <Compound>
CC(C)CCNC(=O)Cn1c(=O)oc2cc(S(=O)(=O)N3CC(C)CC(C)C3)ccc21 (stereo not given)

>  <Class Label>
f

$$$$
>  <Compound>
Cc1cc(Nc2ccccc2)nc(N)n1

>  <Class Label>
f

$$$$
>  <Compound>
Cc1noc(C)c1C(=O)NC(C)c1ccc2c(c1)OCO2 (stereo not given)

>  <Class Label>
t

$$$$
>  <Compound>
Cc1cc(N/C=C\C(=O)c2ccc(Cl)c(Cl)c2)no1

>  <Class Label>
t

$$$$
>  <Compound>
Cc1nn(C)cc1/C=C1\CCC/C(=C\c2cn(C)nc2C)C1=O

>  <Class Label>
f

$$$$
>  <Compound>
COc1ccc(S(=O)(=O)N(CCCN2CCCC2=O)Cc2cc3c(C)ccc(C)c3[nH]c2=O)cc1

>  <Class Label>
t

$$$$
>  <Compound>
CC(C)(C)NC(=O)C(c1ccncc1)N(C(=O)CNC(=O)c1ccco1)c1ccc2c(c1)OCO2 (stereo not given)

>  <Class Label>
t

$$$$

====

- Target Desc: Cytochrome P450 2C19 (Homo sapiens)
- Protocol Text: blockers of cytochrome P450 2C19 activity – biochemical, luminescence, ADME assay, primary screen (AID 778);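 note: plate controls were negative control wells for no effect and 2.5 mM tranylcypromine positive control for full effect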
- Condition Details: CYP2C19 Supersomes, luciferin-H EGE luminescence, 30 min; at 5 µM; stronger effect = higher value
The campaign covered roughly 96,000 compounds. About 20,000 (21%) were called active. These entries were drawn from the full list.
Readout Name: inhibition (%)

>  <Compound>
CCC(C)Sc1nc2c(c(=O)[nH]c(=O)n2C)n1CC(O)COc1cccc2ccccc12 (stereo unspecified)

>  <Value>
14.5

$$$$
>  <Compound>
CCCn1c(=O)c2ccccc2n2c(SCC(=O)/C(C#N)=C(\C)N)nnc12

>  <Value>
4.2

$$$$
>  <Compound>
N#Cc1ccc(OCCN2C(=O)NC3(CCSC3)C2=O)cc1 (stereo unspecified)

>  <Value>
-8.7

$$$$
>  <Compound>
COc1cccc(NC(=O)c2ccccc2SC)c1

>  <Value>
6.7

$$$$
>  <Compound>
CCN(CC(=O)NCc1cccs1)c1nnnn1-c1ccccc1

>  <Value>
27.1

$$$$
>  <Compound>
COc1ccc(OC(C)C(=O)Nc2cccnc2)cc1 (stereo unspecified)

>  <Value>
7.1

$$$$
>  <Compound>
COc1cccc(N(CC(=O)N2CCc3ccccc3C2)S(C)(=O)=O)c1

>  <Value>
31.3

$$$$
>  <Compound>
CCN(CC)C(=O)CN(c1cccc(OC)c1)S(=O)(=O)c1ccc(C)cc1

>  <Value>
64.9

$$$$
>  <Compound>
COc1cccc(N(CC(=O)Nc2cccc(N(C)S(C)(=O)=O)c2)S(C)(=O)=O)c1

>  <Value>
35.8

$$$$
>  <Compound>
Fc1ccc(CNc2nc3ccccc3n3nnnc23)cc1

>  <Value>
6

$$$$
>  <Compound>
CCOc1ccc(S(=O)(=O)N(CC(=O)O)c2ccccc2)cc1

>  <Value>
2.3

$$$$

====

- Target Desc: Cytochrome P450 2C19 (Homo sapiens) (UniProt P33261)
- Protocol Text: blockers of cytochrome P450 2C19 activity – biochemical, luminescence, ADME assay, primary screen (AID 778);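 note: plate controls were negative control wells for no effect and 2.5 mM tranylcypromine positive control for full effect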
- Condition Details: CYP2C19 Supersomes, luciferin-H EGE luminescence, 30 min; at 5 µM; stronger effect = higher value
About 20,000 (21%) of roughly 96,000 compounds were called active. A selection follows.

>  <Molecule>
CN(C)/C=C1\C=C(c2ccccc2)OC1=O

>  <inhibition / %>
-5.7

$$$$
>  <Molecule>
COc1cc(NS(=O)(=O)c2ccc(NC(C)=O)cc2)cc(OC)c1

>  <inhibition / %>
98

$$$$
>  <Molecule>
CCCOc1cccc(C(=O)Nc2nnn(CCC)n2)c1

>  <inhibition / %>
57.8

$$$$
>  <Molecule>
COc1ccc(OCCCC(=O)Nc2nnc(C3CCCO3)s2)cc1 (stereo not drawn)

>  <inhibition / %>
34.1

$$$$
>  <Molecule>
Cc1no[n+]([O-])c1COc1ccccc1/C=C1\NC(=S)NC1=O

>  <inhibition / %>
20.6

$$$$
>  <Molecule>
CCN1CCCC1CNc1ncnc2c1[nH]c1ccc(F)cc12 (stereo not drawn)

>  <inhibition / %>
14.6

$$$$
>  <Molecule>
CCc1c(C)c2c(C)[nH]nc2oc1=O

>  <inhibition / %>
34

$$$$
>  <Molecule>
CC(C(=O)O)N1C(=O)c2cccc3cccc1c23 (stereo not drawn)

>  <inhibition / %>
-13.8

$$$$
>  <Molecule>
CC(=O)NNc1cc(=O)c2c(=O)n(C)c(=O)n(C)c2[nH]1

>  <inhibition / %>
-1.8

$$$$
>  <Molecule>
COc1cccc(-n2cc(C(=O)O)c3ccccc3c2=O)c1

>  <inhibition / %>
1.5

$$$$
>  <Molecule>
CC1(C)COC(c2cccn2Cc2ccccc2Cl)=N1

>  <inhibition / %>
2.4

$$$$
>  <Molecule>
C=CCCC(=O)Nc1nc(C)c(-c2csc(Nc3ccc(Cl)cc3)n2)s1

>  <inhibition / %>
56.4

$$$$
>  <Molecule>
CCCCC(=O)Nc1nc(C)c(-c2csc(Nc3ccc(Cl)cc3)n2)s1

>  <inhibition / %>
45.9

$$$$
>  <Molecule>
Cc1cc(=O)[nH]c(SCc2cc(Cl)ccc2OC(F)F)n1

>  <inhibition / %>
29

$$$$
>  <Molecule>
CCCCOc1ccc(CSC(=N)N)cc1[N+](=O)[O-]

>  <inhibition / %>
16.6

$$$$
>  <Molecule>
CCCCCCC(=O)Nc1nc(C)c(-c2csc(Nc3cc(Cl)ccc3OC)n2)s1

>  <inhibition / %>
-7.7

$$$$
>  <Molecule>
COc1ccc(-c2cc(C)nc3nc(N)nn23)cc1

>  <inhibition / %>
-16.3

$$$$
>  <Molecule>
CCCCOc1ccc(Cl)cc1CSc1nncn1N

>  <inhibition / %>
86.7

$$$$
>  <Molecule>
CCOC(=O)c1nnn(CC(=O)Nc2cccc(F)c2)c1C(=O)OCC

>  <inhibition / %>
95.7

$$$$
>  <Molecule>
COc1ccc(NC(=O)Cn2nnc(C(=O)NCCc3ccc(OC)c(OC)c3)c2N)cc1

>  <inhibition / %>
4.1

$$$$
>  <Molecule>
COCCNC(=S)c1ccc(OC)cc1

>  <inhibition / %>
18

$$$$
>  <Molecule>
Cc1ccc(F)cc1NC(=O)c1cccc(N(C)C)c1

>  <inhibition / %>
8.6

$$$$
>  <Molecule>
Fc1ccc2[nH]c3c(N4CCSCC4)ncnc3c2c1

>  <inhibition / %>
58.5

$$$$
>  <Molecule>
CCN(CC)c1ccc2cc(C(=O)O)c(=O)oc2c1

>  <inhibition / %>
-13.2

$$$$
>  <Molecule>
Cc1cccc(C(=O)Nc2ccc(C(=O)/C=C/c3cccs3)cc2)c1

>  <inhibition / %>
-1.9

$$$$
>  <Molecule>
CCc1c(O)nc(SCC(=O)Nc2ccccc2)n(C(C)CC)c1=O (stereo not drawn)

>  <inhibition / %>
0.7

$$$$
>  <Molecule>
CCNS(=O)(=O)c1ccc(NC(=O)Nc2cccc(OC)c2)cc1

>  <inhibition / %>
25.1

$$$$
>  <Molecule>
CCOC(=O)CC1=CC(=O)Nc2ccccc2N1

>  <inhibition / %>
12.4

$$$$
>  <Molecule>
O=C(Nc1cc(N2CCOCC2)ncn1)NC1(C(F)(F)F)Oc2ccc(Cl)cc2O1 (stereo not drawn)

>  <inhibition / %>
1

$$$$
>  <Molecule>
Cc1nc2nc[nH]n2c(=O)c1NC(=O)c1cccc(OCC(C)C)c1

>  <inhibition / %>
-12.5

$$$$
>  <Molecule>
CCOC(=O)c1cccc(NC(=O)CCn2nnc3ccccc32)c1

>  <inhibition / %>
23.3

$$$$
>  <Molecule>
O=S(=O)(Nc1ccc(Oc2ncccn2)c(Cl)c1)c1ccc(F)cc1

>  <inhibition / %>
100

$$$$
>  <Molecule>
Cc1cc(-c2cccs2)nc(-n2cccc2)n1

>  <inhibition / %>
4.9

$$$$
>  <Molecule>
Cc1cc(N(C)C)cc(C)[n+]1[O-]

>  <inhibition / %>
-6.3

$$$$
>  <Molecule>
CCC(=O)Oc1cccc(C(=O)Nc2ccc(-c3nnc(-c4ccco4)o3)cc2)c1

>  <inhibition / %>
48.6

$$$$
>  <Molecule>
CC(C)(C)c1cc(CN2CCN(CCC#N)CC2)cc(C(C)(C)C)c1O

>  <inhibition / %>
-2.1

$$$$
>  <Molecule>
COCC(C)n1c(SCc2ccc(C(=O)OC)o2)nc2ccccc2c1=O (stereo not drawn)

>  <inhibition / %>
96.7

$$$$
>  <Molecule>
O=C(Nc1cccc2ccccc12)c1onc2c1CCCC2

>  <inhibition / %>
7.1

$$$$
>  <Molecule>
COc1ccc2oc(=O)c(C(=O)N3CCCc4ccccc43)cc2c1

>  <inhibition / %>
10.2

$$$$
>  <Molecule>
c1n[nH]c(NCc2ccc3c(c2)OCO3)n1

>  <inhibition / %>
-7.6

$$$$
>  <Molecule>
O=C(c1cccc(C(=O)N2CCc3ccccc32)n1)N1CCc2ccccc21

>  <inhibition / %>
12.3

$$$$
>  <Molecule>
CCCC(=O)N1c2ccc(-c3csc(N)n3)cc2CC1C (stereo not drawn)

>  <inhibition / %>
4.4

$$$$
>  <Molecule>
Cc1nonc1OCCn1nnnc1N

>  <inhibition / %>
4

$$$$
>  <Molecule>
NC(=NC(=O)c1ccccc1)N1CCOCC1

>  <inhibition / %>
12

$$$$
>  <Molecule>
CC(=O)Nc1cccc2c1[n+]([O-])c(C)c(C)[n+]2[O-]

>  <inhibition / %>
5

$$$$
>  <Molecule>
COC(=O)c1sccc1N/N=C(\C)c1ccc(F)c(Cl)c1

>  <inhibition / %>
-0.3

$$$$
>  <Molecule>
O=C(c1c(Cl)nc2sccn12)N1CCCc2ccccc21

>  <inhibition / %>
91.5

$$$$
>  <Molecule>
Fc1ccc2[nH]c3c(N4CCN(Cc5ccc6c(c5)OCO6)CC4)ncnc3c2c1

>  <inhibition / %>
61.2

$$$$
